- targetSystem: human P2X7 receptor (Homo sapiens, UniProt Q99572, R270H/Y155H)
- experimentNotes: Evaluation of human P2X7 receptor inhibitory activity (Yo-Pro uptake, BzATP stimulation, FLIPR TETRA)
- Type: cell-based
- conditionNotes: 1321N1 cells stably expressing human P2X7 receptor; BzATP stimulation, Yo-Pro uptake; read-out: IC50 (antagonistic activity for the human P2X7 receptor), class symbol
Reported IC50 values for a set of molecules

Solved cases (2 shown):
• COc1cn(Cc2ccc(F)cc2)c(Nc2cccc(Cl)c2C)nc1=O [Compound I-0001] = < 10 nM
• Cc1cc(C)c(Nc2nc(=O)c(C(=O)NCc3ccccc3)cn2Cc2ccccc2)cc1C [Compound I-0284] = 500 to 1000 nM

Exam item: What does the record list as IC50 for COc1cc(C)c(Nc2nc(=O)c(Cl)cn2Cc2ccccc2)cc1OC [Compound I-0310] ?
Marked response: 10 to 100 nM

Exam item: What does the record list as IC50 for CCc1cc(C)c(C)cc1Nc1nc(=O)c(OC)cn1Cc1ccccc1 [Compound I-0265] ?
Marked response: < 10 nM

Exam item: What does the record list as IC50 for CCc1c(Nc2nc(=O)c(OC)cn2Cc2ccc(F)cc2)cccc1OC [Compound I-0213] ?
Marked response: < 10 nM

Exam item: What does the record list as IC50 for COc1cn(Cc2cc(F)cc(F)c2)c(Nc2cccc(C)c2Cl)nc1=O [Compound I-0505] ?
Marked response: 10 to 100 nM

Exam item: What does the record list as IC50 for COc1cn(Cc2ccccc2)c(Nc2cc(C)c(C)cc2C)nc1=O [Compound I-0357] ?
Marked response: 500 to 1000 nM

Exam item: What does the record list as IC50 for COc1cn(Cc2ccccc2COC(F)F)c(Nc2cccc(Cl)c2C)nc1=O [Compound I-0422] ?
Marked response: 500 to 1000 nM

Exam item: What does the record list as IC50 for CCc1ccccc1Nc1nc(=O)c(OC)cn1Cc1cc(F)cc(F)c1 [Compound I-0327] ?
Marked response: 10 to 100 nM

Exam item: What does the record list as IC50 for COc1cn(Cc2ccc(F)c(F)c2)c(Nc2cc(C)c(Cl)cc2C)nc1=O [Compound I-0279] ?
Marked response: < 10 nM

Exam item: What does the record list as IC50 for CCc1c(Nc2nc(=O)c(OC)cn2Cc2ccc(F)c(Cl)c2)cc(OC)cc1OC [Compound I-0363] ?
Marked response: < 10 nM

Exam item: What does the record list as IC50 for Cc1c(Cl)cccc1Nc1nc(=O)c(CC(=O)O)cn1Cc1ccccc1 [Compound I-0025] ?
Marked response: 500 to 1000 nM

Exam item: What does the record list as IC50 for COc1cc(C)c(Nc2nc(=O)c(OC)cn2Cc2cccc(Cl)c2)cc1OC [Compound I-0208] ?
Marked response: < 10 nM

Exam item: What does the record list as IC50 for CCc1c(Nc2nc(=O)c(OC)cn2Cc2ccccc2)cc(OC)cc1OC [Compound I-0361] ?
Marked response: < 10 nM

Exam item: What does the record list as IC50 for CCOc1cc(C)c(Nc2nc(=O)c(OC)cn2Cc2cc(F)cc(F)c2)cc1C [Compound I-0383] ?
Marked response: < 10 nM

Exam item: What does the record list as IC50 for COc1cn(Cc2ccc(F)c(Cl)c2)c(Nc2ccc(OC(C)C)cc2C)nc1=O [Compound I-0532] ?
Marked response: 10 to 100 nM

Exam item: What does the record list as IC50 for COc1cn(Cc2ccc(F)c(Cl)c2)c(Nc2ccc(C)cc2C)nc1=O [Compound I-0376] ?
Marked response: < 10 nM

* * *

- targetSystem: human P2X7 receptor (Homo sapiens, UniProt Q99572, R270H/Y155H)
- experimentNotes: Evaluation of human P2X7 receptor inhibitory activity (Yo-Pro uptake, BzATP stimulation, FLIPR TETRA)
- Format: cell-based
- conditionNotes: 1321N1 cells stably expressing human P2X7 receptor; BzATP stimulation, Yo-Pro uptake; read-out: IC50 (antagonistic activity for the human P2X7 receptor), class symbol
outcomeMeasure: IC50

Solved cases (3 shown):
• CCc1ccc(Cl)cc1Nc1nc(=O)c(OC)cn1Cc1cccc(Cl)c1 = 10 to 100 nM
• COc1cn(Cc2ccc(F)c(Cl)c2)c(Nc2cc(-c3ncco3)ccc2C)nc1=O = < 10 nM
• CCc1cc(OC)ccc1Nc1nc(=O)c(OC)cn1Cc1cccc(F)c1 = < 10 nM

Consider the record given below.
Exam item: What does the record list as IC50 for "COc1cc(Nc2nc(=O)c(OC)cn2Cc2ccccc2)c(C)cc1Cl" ?
Marked response: < 10 nM

* * *

Reported pIC50 values for a set of compounds
- targetSystem: human P2X7 receptor (Homo sapiens, UniProt Q99572, R270H/Y155H)
- experimentNotes: Evaluation of human P2X7 receptor inhibitory activity (Yo-Pro uptake, BzATP stimulation, FLIPR TETRA)
- Type: cell-based
- conditionNotes: 1321N1 cells stably expressing human P2X7 receptor; BzATP stimulation, Yo-Pro uptake; read-out: IC50 (antagonistic activity for the human P2X7 receptor), class symbol
pIC50: −log10 of the molar value.

Solved cases (8 shown):
• Cc1c(Cl)cccc1Nc1nc(=O)c(C(=O)NCCS(C)(=O)=O)cn1Cc1ccccc1 = 7.00 to 8.00
• CCc1ccccc1Nc1nc(=O)c(F)cn1Cc1ccccc1 = 7.00 to 8.00
• COc1cn(Cc2ccc(F)c(F)c2)c(Nc2ccc(OC(F)F)cc2C)nc1=O = 7.00 to 8.00
• COCc1ccccc1Nc1nc(=O)c(OC)cn1Cc1ccc(F)c(Cl)c1 = 6.30 to 7.00
• CCc1ccc(OC)cc1Nc1nc(=O)c(OC)cn1Cc1ccc(F)cc1 = 7.00 to 8.00
• COc1cn(Cc2ccc(F)c(Cl)c2)c(Nc2cccc(Cl)c2C)nc1=O = > 8.00
• COc1cn(Cc2ccccc2)c(Nc2cc(C(C)(C)C)ccc2C)nc1=O = 7.00 to 8.00
• COc1cn(Cc2cccc(F)c2)c(Nc2cccc(C)c2C)nc1=O = > 8.00

Exam item: What does the record list as pIC50 for "COc1cn(Cc2cc(F)c(F)c(F)c2)c(Nc2cc(C)c(Cl)cc2C)nc1=O" ?
Marked response: > 8.00

Exam item: What does the record list as pIC50 for "COc1cn(Cc2ccccc2)c(Nc2cccc(Cl)c2C)nc1=O" ?
Marked response: > 8.00

Exam item: What does the record list as pIC50 for "COc1cn(Cc2ccc(F)c(Cl)c2)c(Nc2cccc(OC(C)C)c2C)nc1=O" ?
Marked response: 7.00 to 8.00

Exam item: What does the record list as pIC50 for "COc1cccc(Nc2nc(=O)c(OC)cn2Cc2ccccc2)c1C" ?
Marked response: 7.00 to 8.00

Exam item: What does the record list as pIC50 for "CCc1ccc(CC)c(Nc2nc(=O)c(OC)cn2Cc2ccccc2)c1" ?
Marked response: > 8.00

Exam item: What does the record list as pIC50 for COc1cn(Cc2ccccc2COC(F)F)c(Nc2cccc(Cl)c2C)nc1=O [Compound I-0463] ?
Marked response: > 8.00

Exam item: What does the record list as pIC50 for "CCc1ccc(Cl)cc1Nc1nc(=O)c(OC)cn1Cc1ccc(F)c(Cl)c1" ?
Marked response: > 8.00

Exam item: What does the record list as pIC50 for "COc1cn(Cc2ccccc2)c(Nc2cccc(N(C)C)c2C)nc1=O" ?
Marked response: 7.00 to 8.00

Exam item: What does the record list as pIC50 for COc1cn(Cc2ccccc2OC(F)F)c(Nc2cccc(Cl)c2C)nc1=O [Compound I-0421] ?
Marked response: 7.00 to 8.00

Exam item: What does the record list as pIC50 for COc1cn(Cc2ccccc2)c(Nc2cc(Cl)c(Cl)cc2C)nc1=O [Compound I-0423] ?
Marked response: 7.00 to 8.00

* * *

- targetSystem: human P2X7 receptor (Homo sapiens, UniProt Q99572, R270H/Y155H)
- experimentNotes: Evaluation of human P2X7 receptor inhibitory activity (Yo-Pro uptake, BzATP stimulation, FLIPR TETRA)
- Format: cell-based
- conditionNotes: 1321N1 cells stably expressing human P2X7 receptor; BzATP stimulation, Yo-Pro uptake; read-out: IC50 (antagonistic activity for the human P2X7 receptor), class symbol
pIC50: −log10 of the molar value.
Reported pIC50 values for a set of compounds

- COc1cn(Cc2ccc(F)c(F)c2)c(Nc2cccc(C)c2Cl)nc1=O: > 8.00

Exam item: What does the record list as pIC50 for "COc1cc(C)c(Nc2nc(=O)c(OC)cn2Cc2ccc(F)cc2)cc1OC" ?
Marked response: 7.00 to 8.00

Exam item: What does the record list as pIC50 for "CCc1cc2c(cc1Nc1nc(=O)c(OC)cn1Cc1cccc(Cl)c1)CCC2" ?
Marked response: > 8.00

Exam item: What does the record list as pIC50 for "COc1cn(Cc2ccc(Cl)cc2)c(Nc2cccc(Cl)c2C)nc1=O" ?
Marked response: 7.00 to 8.00

Exam item: What does the record list as pIC50 for "COc1cc(Nc2nc(=O)c(OC)cn2Cc2cc(F)cc(Cl)c2)c(C)cc1Cl" ?
Marked response: > 8.00

Exam item: What does the record list as pIC50 for "COc1cn(Cc2ccccc2)c(Nc2cc(C)ccc2C)nc1=O" ?
Marked response: 7.00 to 8.00

Exam item: What does the record list as pIC50 for "COc1cn(Cc2ccc(F)c(F)c2)c(Nc2cc(OC(C)C)ccc2C)nc1=O" ?
Marked response: 7.00 to 8.00

Exam item: What does the record list as pIC50 for "Cc1cccc(C)c1Nc1nc(=O)c(F)cn1Cc1ccccc1" ?
Marked response: 7.00 to 8.00

Exam item: What does the record list as pIC50 for "COc1cn(Cc2ccc(F)c(Cl)c2)c(Nc2cccc(SC)c2C)nc1=O" ?
Marked response: > 8.00

Exam item: What does the record list as pIC50 for "CCc1cc(OC)ccc1Nc1nc(=O)c(OC)cn1Cc1cc(F)cc(F)c1" ?
Marked response: > 8.00

Exam item: What does the record list as pIC50 for "COc1cn(Cc2ccccc2)c(Nc2cc(Br)ccc2C)nc1=O" ?
Marked response: 7.00 to 8.00
